Data provenance: ChEMBL document CHEMBL5344485

- Protocol Notes: in vivo
- Run Conditions: Sprague-Dawley, rat, plasma, po, 30 mg/kg
- Description: Drug concentration in Sprague-Dawley rat plasma at 30 mg/kg, po administered as single dose and stimulated with ACTH for 4 hrs measured after 0.5 hrs
Observation Type: concentration at 0.5 h
Please answer using the number first and the unit second.

Quick note, concentration at 0.5 h for CCOc1ccccc1-c1ccc(N2CCN(C(=O)C3(C(F)(F)F)CCC3)C[C@H]2CC)c(C(=O)N[C@@H]2CN3CCC2CC3)n1 [ATUMELNANT] landed at 1460 ng/mL

----------
- Protocol Notes: in vivo
- Run Conditions: rat, iv, 5 mg/kg
- Description: Volume of distribution at steady state in rat at 5 mg/kg, iv
Observation Type: Vd (L/kg)
Give bare numbers, in L/kg.

Quick note, Vd for "CCOc1ccccc1-c1ccc(N2CCN(C(=O)C3(C(F)(F)F)CCC3)C[C@H]2CC)c(C(=O)N[C@@H]2CN3CCC2CC3)n1" landed at 3.19

----------
Task for the reader: assign each of the following molecules its reported half-life.
- Protocol Notes: in vitro
- Run Conditions: rat, liver microsomes
- Description: Stability in rat liver microsomes assessed as half life
One number for each entry, in min.

Example cases with answers are listed next.
- Smiles Notation: "CCOc1ncccc1-c1ccc(N2CCN(C(=O)C3(C(F)(F)F)CCCC3)C[C@H]2CC)c(C(=O)N[C@@H]2CCN(C)C2)n1"
  Quantity Unit: "min"
  half-life: 231
- Smiles Notation: "CCOc1ncccc1-c1ccc(N2CCN(C(=O)c3ccc(Cl)cc3C(F)(F)F)C[C@H]2CC)c(C(=O)N[C@@H]2CCN(C)C2)n1"
  Quantity Unit: "min"
  half-life: 43

Quick note, half-life for "CCOc1ncccc1-c1ccc(N2CCN(C(=O)c3ccc(Cl)cc3C(F)(F)F)C[C@H]2CC)c(C(=O)NCCN(C)C)n1" landed at 21

----------
- Protocol Notes: in vivo
- Run Conditions: Sprague-Dawley, rat, plasma, po, 30 mg/kg
- Description: Drug concentration in Sprague-Dawley rat plasma at 30 mg/kg, po administered as single dose and stimulated with ACTH for 4 hrs measured after 1.5 hrs
Observation Type: concentration at […] (ng/mL)
Numbers only, in ng/mL.

Quick note, concentration at […] for "CCOc1ccccc1-c1ccc(N2CCN(C(=O)C3(C(F)(F)F)CCC3)C[C@H]2CC)c(C(=O)N[C@@H]2CN3CCC2CC3)n1" landed at 1260

----------
pKi, UniProt:Q01718, per-entry values.
Sequence (Q01718 whole entry): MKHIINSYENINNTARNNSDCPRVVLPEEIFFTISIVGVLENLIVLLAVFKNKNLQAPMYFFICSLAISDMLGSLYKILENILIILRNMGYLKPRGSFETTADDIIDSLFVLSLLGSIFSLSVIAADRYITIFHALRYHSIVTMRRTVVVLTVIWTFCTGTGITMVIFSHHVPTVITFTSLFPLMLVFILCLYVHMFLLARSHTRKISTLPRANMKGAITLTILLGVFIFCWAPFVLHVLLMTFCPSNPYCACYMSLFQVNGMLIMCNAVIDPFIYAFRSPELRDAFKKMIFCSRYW
Answers are plain numbers, as −log10 of the molar value.

Hi, could you look up pKi for each item in my list?
1. CCOc1ncccc1-c1ccc(N2CCN(C(=O)c3ccc(Cl)cc3C(F)(F)F)C[C@H]2CC)c(C(=O)NCCN(C)C)c1
2. CCOc1ccccc1-c1ccc(N2CCN(C(=O)C3(C(F)(F)F)CCC3)C[C@H]2CC)c(C(=O)N[C@@H]2CN3CCC2CC3)n1
3. CCOc1ncccc1-c1ccc(N2CCN(C(=O)c3ccc(Cl)cc3C(F)(F)F)C[C@H]2CC)c(C(=O)N[C@@H]2CCNC2)n1
4. CC[C@@H]1CN(C(=O)c2ccc(C(F)(F)F)cc2Cl)CCN1c1ccc(-c2cccc(F)c2Cl)cc1C(=O)NCCN
5. CCOc1ncccc1-c1ccc(N2CCN(C(=O)C3(C(F)(F)F)CCC3)C[C@H]2CC)c(C(=O)N[C@@H]2CN3CCC2CC3)n1
6. CCOc1ncccc1-c1ccc(N2CCN(C(=O)c3ccc(Cl)cc3C(F)(F)F)C[C@H]2CC)c(C(=O)NCCNC)c1

1. 8.82
2. 8.68
3. 9.49
4. 7.44
5. 8.36
6. 9.02

----------
- Protocol Notes: in vivo
- Run Conditions: dog, iv, 5 mg/kg
- Description: Volume of distribution at steady state in dog at 5 mg/kg, iv
Observation Type: Vd (L/kg)
Answers are plain numbers, in L/kg.

Quick note, Vd for "CCOc1ccccc1-c1ccc(N2CCN(C(=O)C3(C(F)(F)F)CCC3)C[C@H]2CC)c(C(=O)N[C@@H]2CN3CCC2CC3)n1" landed at 10.5
